target: NLRP3 (Homo sapiens, UniProt Q96P20)
Sequence (Q96P20 whole entry): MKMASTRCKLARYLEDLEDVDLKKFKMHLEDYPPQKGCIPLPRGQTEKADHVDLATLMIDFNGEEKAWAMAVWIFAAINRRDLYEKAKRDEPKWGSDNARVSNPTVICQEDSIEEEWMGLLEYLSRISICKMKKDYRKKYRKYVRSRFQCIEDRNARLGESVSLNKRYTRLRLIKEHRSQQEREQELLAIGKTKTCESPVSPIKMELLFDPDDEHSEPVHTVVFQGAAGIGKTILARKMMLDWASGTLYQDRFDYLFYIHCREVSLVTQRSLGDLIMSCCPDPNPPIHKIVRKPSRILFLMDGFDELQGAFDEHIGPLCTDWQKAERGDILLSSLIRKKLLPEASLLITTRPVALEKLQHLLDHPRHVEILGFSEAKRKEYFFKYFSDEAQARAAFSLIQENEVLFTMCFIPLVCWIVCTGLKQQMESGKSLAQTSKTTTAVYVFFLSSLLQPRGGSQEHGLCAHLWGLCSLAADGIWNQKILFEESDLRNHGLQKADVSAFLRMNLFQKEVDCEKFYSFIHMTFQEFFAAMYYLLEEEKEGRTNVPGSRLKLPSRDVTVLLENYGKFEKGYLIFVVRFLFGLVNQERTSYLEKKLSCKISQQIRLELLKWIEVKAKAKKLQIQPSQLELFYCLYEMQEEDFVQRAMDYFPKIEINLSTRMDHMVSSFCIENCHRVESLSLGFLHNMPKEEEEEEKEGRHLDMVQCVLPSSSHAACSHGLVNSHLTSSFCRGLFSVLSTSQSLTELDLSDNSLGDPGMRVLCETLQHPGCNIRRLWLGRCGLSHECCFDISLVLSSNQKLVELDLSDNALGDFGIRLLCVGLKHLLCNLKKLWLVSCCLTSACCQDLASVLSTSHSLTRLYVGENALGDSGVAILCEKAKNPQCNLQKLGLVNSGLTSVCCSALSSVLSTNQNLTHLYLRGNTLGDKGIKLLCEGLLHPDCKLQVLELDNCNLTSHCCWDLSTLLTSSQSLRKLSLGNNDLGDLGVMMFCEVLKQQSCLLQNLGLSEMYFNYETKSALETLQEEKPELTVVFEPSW
TEST_READOUT: Kd

COMPOUND	TARGET_ENTITY	TEST_READOUT	MEASURED_RESULT
O=C1NC(=O)[C@@H](c2cn3c4c(cccc24)CCC3)[C@@H]1c1c[nH]c2ccccc12 [Tivantinib]	NLRP3 (Homo sapiens, UniProt Q96P20)	Kd	~373 nM
